The measurements presented in this section are drawn from paper PMC9967645.

- assay_overview: Pharmacokinetic study in rats, intravenous Y101 with or without PRO
- Type: in vivo, Sprague–Dawley (SD) rats
- recorded_conditions: male, Sprague-Dawley, rat, plasma, iv, 25 mg/kg, i.v. Y101 25 mg/kg alone, n = 3, read-out: CLp (plasma clearance) (converted)
- Method: The effect of PRO on the pharmacokinetics of Y101 was studied in rats. Male rats surgically prepared with indwelling jugular cannula were randomly divided into two groups (n = 3): (1) Y101 alone (25 mg/kg) as a control and (2) Y101 + PRO (25 mg/kg for Y101 and 100 mg/kg for PRO) as an experimental group. The intravenous dose of Y101 was prepared as previously described. Both Y101 and PRO were injected by caudal vein to rats at volume of 5 mL/kg. […]
assay_metric: clearance (mL/min/kg)
Form entry: value (mL/min/kg) — number only.

Which clearance is listed for CN(C)CCOc1ccc(C[C@H](NC(=O)c2ccccc2)C(=O)N[C@H](CO)Cc2ccccc2)cc1.Cl [Y101] ? 149
